target: Glucagon receptor (Homo sapiens); test: Antagonist activity against human glucagon receptor expressed in CHO cells assessed as reduction in glucagon-induced cAMP production; format: functional, cell-based
Sequence (P47871 whole entry): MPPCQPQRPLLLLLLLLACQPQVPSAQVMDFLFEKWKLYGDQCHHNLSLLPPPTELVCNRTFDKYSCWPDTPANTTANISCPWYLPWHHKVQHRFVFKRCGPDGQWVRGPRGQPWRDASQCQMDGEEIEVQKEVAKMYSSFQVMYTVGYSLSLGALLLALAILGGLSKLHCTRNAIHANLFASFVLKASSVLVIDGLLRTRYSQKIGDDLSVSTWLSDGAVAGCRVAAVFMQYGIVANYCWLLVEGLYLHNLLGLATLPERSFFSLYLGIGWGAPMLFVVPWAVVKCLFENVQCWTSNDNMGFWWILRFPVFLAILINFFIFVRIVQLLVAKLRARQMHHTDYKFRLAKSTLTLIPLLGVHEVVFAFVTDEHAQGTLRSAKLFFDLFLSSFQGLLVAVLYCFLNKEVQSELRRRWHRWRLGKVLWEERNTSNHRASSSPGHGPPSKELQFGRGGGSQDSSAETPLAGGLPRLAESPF
result_type: IC50 (nM)

Please review the following examples before continuing.
[
  {
    "molecule": "COc1ccc(Cl)cc1-c1nn(C(C)c2ccc(C(=O)NCCC(=O)O)cc2)c2cc(-c3ccc(OC(F)(F)F)cc3)ccc12 (configuration not stated)",
    "result_type": "IC50",
    "result_units": "nM",
    "measured_number": 36
  },
  {
    "molecule": "CCCCC(c1ccc(C(=O)NCCC(=O)O)cc1)n1nc(-c2cc(C(F)(F)F)ccc2OC)c2ccc(-c3ccc(OC)cc3)cc21 (configuration not stated)",
    "result_type": "IC50",
    "result_units": "nM",
    "measured_number": 14
  }
]

[A] CCCCC(c1ccc(C(=O)NCCC(=O)O)cc1)n1nc(-c2cc(C(F)(F)F)ccc2OC)c2ccc(-c3cc(F)cc(Cl)c3)cc21 (configuration not stated)
[B] CCCC(c1ccc(C(=O)NCCC(=O)O)cc1)n1nc(-c2cc(C(F)(F)F)ccc2OC)c2cccc(-c3ccc(OC)cc3)c21 (configuration not stated)
[C] CCCCC(c1ccc(C(=O)NCCC(=O)O)cc1)n1nc(-c2cc(C(F)(F)F)ccc2OC)c2ccc(-c3ccccc3)cc21 (configuration not stated)
[D] CCCCC(c1ccc(C(=O)NCCC(=O)O)cc1)n1nc(-c2cc(C(F)(F)F)ccc2OC)c2ccc(-c3ccc(OC(F)(F)F)cc3)cc21 (configuration not stated)
[E] COc1ccncc1-c1nn(C(C)c2ccc(C(=O)NCCC(=O)O)cc2)c2cc(-c3ccc(OC(F)(F)F)cc3)ccc12 (configuration not stated)
**Q:** Please order the records by their reported IC50, lowest number first. Would you mind listing the labels in the order asked for?
**A:** D, C, A, E, B
(D: 8 nM, C: 18 nM, A: 46 nM, E: 760 nM, B: 2700 nM)

* * *

system: Rattus norvegicus; assay: Dose normalized AUC in Wistar rat at 0.5 mg/kg, iv or 2 mg/kg, po; assay type: ADME, organism-based; details: in vivo
result_type: AUC/dose (µM·kg·h/mg)

Please review the following examples before continuing.
[
  {
    "compound": "CCCCC(c1ccc(C(=O)NCCC(=O)O)cc1)n1nc(-c2cc(C(F)(F)F)ccc2OC)c2ccc(-c3ccc(OC)cc3)cc21 (stereo not given)",
    "result_type": "AUC/dose",
    "result_units": "µM·kg·h/mg",
    "measured_number": 4
  },
  {
    "compound": "COc1ccc(C(F)(F)F)cc1-c1nn(C(C)c2ccc(C(=O)NCCC(=O)O)cc2)c2cc(-c3ccc(C)cc3)ccc12 (stereo not given)",
    "result_type": "AUC/dose",
    "result_units": "µM·kg·h/mg",
    "measured_number": 2
  },
  {
    "compound": "CCCC(c1ccc(C(=O)NCCC(=O)O)cc1)n1nc(-c2cc(C(F)(F)F)ccc2OC)c2ccc(-c3ccc(OC(F)(F)F)cc3)cc21 (stereo not given)",
    "result_type": "AUC/dose",
    "result_units": "µM·kg·h/mg",
    "measured_number": 2
  }
]

[1] CCCCC(c1ccc(C(=O)NCCC(=O)O)cc1)n1nc(-c2cc(C(F)(F)F)ccc2OC)c2ccc(-c3ccc(OC(F)(F)F)cc3)cc21 (stereo not given)
[2] CCCCC(c1ccc(C(=O)NCCC(=O)O)cc1)n1nc(-c2cc(C(F)(F)F)ccc2OC)c2ccc(-c3ccc(C)cc3)cc21 (stereo not given)
**Q:** Given 1 and 2 , report the one with the higher recorded AUC/dose. When you have decided, please share the label of that item.
**A:** 2
(2: 1.2 µM·kg·h/mg, 1: 0.3 µM·kg·h/mg)
